Below, each entry is listed alongside its reported pIC50.
Target chain: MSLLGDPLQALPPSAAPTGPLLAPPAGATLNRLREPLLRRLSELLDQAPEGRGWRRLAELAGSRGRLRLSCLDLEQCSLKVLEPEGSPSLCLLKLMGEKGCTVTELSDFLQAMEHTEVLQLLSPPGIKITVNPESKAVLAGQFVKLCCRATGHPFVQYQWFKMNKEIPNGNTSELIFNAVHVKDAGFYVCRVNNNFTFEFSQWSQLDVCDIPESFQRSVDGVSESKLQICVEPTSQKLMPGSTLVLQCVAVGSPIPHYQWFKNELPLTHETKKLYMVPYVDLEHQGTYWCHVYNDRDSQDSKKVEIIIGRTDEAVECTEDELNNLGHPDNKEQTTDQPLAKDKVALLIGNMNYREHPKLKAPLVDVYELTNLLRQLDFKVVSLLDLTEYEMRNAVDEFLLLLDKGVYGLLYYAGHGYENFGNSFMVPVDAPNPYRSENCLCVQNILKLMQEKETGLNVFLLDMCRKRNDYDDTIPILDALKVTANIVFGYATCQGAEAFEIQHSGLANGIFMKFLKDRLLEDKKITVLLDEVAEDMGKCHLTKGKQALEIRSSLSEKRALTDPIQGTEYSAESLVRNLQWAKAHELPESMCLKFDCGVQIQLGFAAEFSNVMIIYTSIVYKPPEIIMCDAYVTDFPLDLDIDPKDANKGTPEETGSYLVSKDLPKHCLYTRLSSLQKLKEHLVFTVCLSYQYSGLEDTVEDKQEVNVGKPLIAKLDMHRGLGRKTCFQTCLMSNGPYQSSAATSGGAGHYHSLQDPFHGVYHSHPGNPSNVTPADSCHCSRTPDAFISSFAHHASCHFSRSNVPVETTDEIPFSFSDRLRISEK
pIC50: −log10 of the molar value.

Name the recorded pIC50 for Cn1nc(-c2cccc3c(C#N)nccc23)c(C(F)(F)F)c1C(=O)Nc1ccnc(C(F)(F)F)c1 .
5.60 to 6.30

Name the recorded pIC50 for COc1ccncc1-c1nn(C)c(C(=O)Nc2ccnc(C(F)(F)F)c2)c1C(F)(F)F .
5.60 to 6.30

Name the recorded pIC50 for Cn1nc(-c2cccc3ncsc23)c(C(F)(F)F)c1C(=O)Nc1ccc(C(=O)N2CC(O)C2)c(Cl)c1 .
5.60 to 6.30

Name the recorded pIC50 for Cn1nc(-c2ccc(F)c3nccn23)c(C(F)(F)F)c1C(=O)Nc1ccnc(C(F)(F)F)c1 .
5.60 to 6.30

More entries:
Name the recorded pIC50 for Cc1cn2c(-c3nn(C)c(C(=O)Nc4ccnc(C5CC5)c4)c3C(F)(F)F)cccc2n1 .
< 5.00
